assay: Rate of encapsulation of Luc DNA in lipid nanoparticles; assay type: physicochemical; design: unit: %; details: Luc DNA-encapsulated lipid nanoparticles; cationic lipid:DPPC:cholesterol:GM-020=60:10.6:28:1.4 molar ratio

- Compound: "CCCCCCCCC(C(=O)OC)C(=O)OCC(COC(=O)CCCN(C)C)(COC(=O)CC(CCCCC)CCCCC)COC(=O)C(CCCCCCCC)C(=O)OC (stereo not drawn)"
  Rate of encapsulation: 96.5
- Compound: "CCCCCCCOC(=O)CCCCC(=O)OCC(COC(=O)CCCCC(=O)OCCCCCCC)(COC(=O)CCCN(C(C)C)C(C)C)COC(=O)CC(CCCCC)CCCCC"
  Rate of encapsulation: 94.1
- Compound: "CCCCCCCOC(=O)CCCCC(=O)OCC(COC(=O)CCCCN(C)C)(COC(=O)CC(CCCCC)CCCCC)COC(=O)CC(CCCCC)CCCCC"
  Rate of encapsulation: 96.6
- Compound: "CCCCCCCCCOC(=O)CCC(=O)OCC(COC(=O)CCCN(CC)C(C)C)(COC(=O)CCC(=O)OCCCCCCCCC)COC(=O)CC(CCCCC)CCCCC"
  Rate of encapsulation: 94.9
- Compound: "CCCCCCCCC(C(=O)OC)C(=O)OCC(COC(=O)CCCN(CC)C(C)C)(COC(=O)CC(CCCCC)CCCCC)COC(=O)C(CCCCCCCC)C(=O)OC (stereo not drawn)"
  Rate of encapsulation: 95.3
- Compound: "CCCCCCCCOC(=O)CCCC(=O)OCC(COC(=O)CCCC(=O)OCCCCCCCC)(COC(=O)CCCN(C)C)COC(=O)CC(CCCCC)CCCCC"
  Rate of encapsulation: 96.3
- Compound: "CCCCCCCOC(=O)CCCCC(=O)OCC(COC(=O)CCCCC(=O)OCCCCCCC)(COC(=O)CCCN(CC)C(C)C)COC(=O)CC(CCCCC)CCCCC"
  Rate of encapsulation: 96.5
- Compound: "CCCCCCOC(=O)CCCCCCCC(=O)OCC(COC(=O)CCCN(C)C)(COC(=O)CC(CCCCC)CCCCC)COC(=O)CC(CCCCC)CCCCC"
  Rate of encapsulation: 98.2
- Compound: "CCCCCOC(=O)CCCCCCC(=O)OCC(COC(=O)CCCCCCC(=O)OCCCCC)(COC(=O)CCCN(C)C)COC(=O)CC(CCCCC)CCCCC"
  Rate of encapsulation: 92.6
- Compound: "CCCCCCCOC(=O)CCCCC(=O)OCC(COC(=O)CCCN(CC)CC)(COC(=O)CC(CCCCC)CCCCC)COC(=O)CC(CCCCC)CCCCC"
  Rate of encapsulation: 96.2
- Compound: "CCCCCC(CCCCC)CC(=O)OCC(COC(=O)CCCCC(=O)OCC(CCCC)CCCC)(COC(=O)CCCCC(=O)OCC(CCCC)CCCC)COC(=O)CCCN(C)C"
  Rate of encapsulation: 82.0
- Compound: "CCCCCCCOC(=O)CCCCC(=O)OCC(COC(=O)CCCCC(=O)OCCCCCCC)(COC(=O)CCCN(C)CCO)COC(=O)CC(CCCCC)CCCCC"
  Rate of encapsulation: 94.8

---

experiment: Rate of encapsulation of Luc DNA in lipid nanoparticles; type: physicochemical; set-up: unit: %; conditions: Luc DNA-encapsulated lipid nanoparticles; cationic lipid:DPPC:cholesterol:GM-020=60:10.6:28:1.4 molar ratio
Measure name: Rate of encapsulation

- Molecule: "CCCCCCCOC(=O)CCCCC(=O)OCC(COC(=O)CCCN(C)C)(COC(=O)CC(CCC)CCCCCCC)COC(=O)CC(CCC)CCCCCCC (stereo not drawn)"
  Result: 97.1
- Molecule: "CCCCCCCCCOC(=O)CCC(=O)OCC(COC(=O)CCCN(C)C)(COC(=O)CCC(=O)OCCCCCCCCC)COC(=O)CC(CCCCC)CCCCC"
  Result: 97.8
- Molecule: "CCCCCC(CCCCC)CC(=O)OCC(COC(=O)CCCCCCCCCCC(=O)OC)(COC(=O)CCCCCCCCCCC(=O)OC)COC(=O)CCCN(C)C"
  Result: 73.5
- Molecule: "CCCCCCCOC(=O)CCCCC(=O)OCC(COC(=O)CCCCC(=O)OCCCCCCC)(COC(=O)CCN(C)C)COC(=O)CC(CCCCC)CCCCC"
  Result: 95.7
- Molecule: "CCCCCCOC(=O)C(CCCCCC)C(=O)OCC(COC(=O)CCCCN(C)C)(COC(=O)CC(CCCCC)CCCCC)COC(=O)C(CCCCCC)C(=O)OCCCCCC (stereo not drawn)"
  Result: 96.0
- Molecule: "CCCCCCCCCCOC(=O)CC(=O)OCC(COC(=O)CCCN(C)C)(COC(=O)CC(=O)OCCCCCCCCCC)COC(=O)CC(CCCCC)CCCCC"
  Result: 92.6
